// data source = PubChem BioAssay AID1159580

experiment: chemical genetic growth profiling, strain panel (AID 1159580);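 further: tested at 20 µM; growth read once vehicle control cultures reached saturation at 30 °C; 1 = growth at the plate median or of vehicle wells; lower values mean less growth of the strain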; conditions: S. cerevisiae deletion strains, growth OD, locus YOR069W, strain VPS5, active compounds read low
The campaign covered roughly 5,500 compounds. About 2,000 (36%) were called active. About 18% were inconclusive and are not listed. Some of the results follow.
# normalized growth per entry

MOLECULE	normalized growth
O=c1oc2ccccc2cc1O	1.02
NC(=O)NC1NC(=O)NC1=O (stereo not given)	0.99
O=C(O)C1CCCNC1 (stereo not given)	1
COC(=O)/C(C)=C\CC12OC(C)(C)C3CC(C=C4C(=O)c5c(OC)c6c(c(CC=C(C)C)c5OC431)OC(C)(CCC=C(C)C)C=C6)C2=O (stereo not given)	0.996
CCC(C)C(=O)c1c(O)c(C)c2oc3c(C)c(O)c(C(=O)C(C)CC)c(O)c3c2c1O (stereo not given)	0.977
COC(=O)[C@@H]1OC(=O)C2OC23[C@@]1(C)CCC1[C@@]2(C)CCC(=O)C(C)(C)C2C[C@@H](OC(C)=O)[C@]13C (stereo not given in full)	1.01
Cc1oncc1C(=O)Nc1ccc(C(F)(F)F)cc1	1.02
NC(N)=NCCN1CCCCCCC1	1
COC[C@]12CN(C=O)C3[C@@H]4[C@H](OC)C1[C@]3(C1CC3(O)C(OC)C(O)C4(OC(C)=O)C1C3OC(=O)c1ccccc1)[C@@H](OC)C[C@H]2O (stereo not given in full)	1.01
O=C(O)CCC1NCC2CC1CN1CCCCC21 (stereo not given)	1
